B1: POU domain, class 3, transcription factor 4, residues 280 to 335; numbered along this chain, P49335 (parent)
chain: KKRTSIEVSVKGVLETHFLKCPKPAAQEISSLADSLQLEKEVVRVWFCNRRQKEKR

- Variants of: B1
- Assay Details: abundance fitness (aPCA) (normalised: wild type 0, dead -1); higher = more abundant; growth selection in yeast, the domain comes from the species named
- Test Parameters: Homo sapiens
Classification field: enter Criterion met for abundance fitness values not below -0.4, Criterion not met for values below it.

>>> print(df.to_string())
    mutation_spec  qualitative_label
 0            K1M      Criterion met
 1           T16K      Criterion met
 2            S5H      Criterion met
 3           P22G  Criterion not met
 4           N49T      Criterion met
 5           R44Q      Criterion met
 6           R51Q      Criterion met
 7           K23R      Criterion met
 8           Q27W      Criterion met
 9           Q27A      Criterion met
10           E54T  Criterion not met
11           F18C  Criterion not met
12           H17Y      Criterion met
13           Q52Y      Criterion met
14           L32G  Criterion not met
15           A26I      Criterion met
16           R51S  Criterion not met
17           V43Q  Criterion not met
18           V10C  Criterion not met
19           E39F  Criterion not met
20            S9K      Criterion met
21           P22F  Criterion not met
